- System: RXRa DBDmut IVT, anti-RXR (DBD mutation: RXRa K156A/R161A, NR concentration 90 nM)
- Protocol Description: PBM binding z-score (relative to random genomic background probes); higher = stronger binding; sequences stand for … in GC…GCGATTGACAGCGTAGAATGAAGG
# PBM binding z-score binned as lower level (below 0.7), middle level (0.7 to below 2), upper level (2 or more)

# count of solved cases: 6
[
  {
    "Sequence Text": "CCGACTGGGGCACAAAGGTTACCATACCATCCGG",
    "Class Assignment": "lower level"
  },
  {
    "Sequence Text": "ATATGTAGGTTAAGGGTAATTCAGGTTGGTTCGC",
    "Class Assignment": "middle level"
  },
  {
    "Sequence Text": "TCTATTAGTTGAAGGGCAACGGACGAGTCCGTTT",
    "Class Assignment": "middle level"
  },
  {
    "Sequence Text": "AGAATGATGTTATACGTAGATCAGGGAAGAAAGT",
    "Class Assignment": "lower level"
  },
  {
    "Sequence Text": "CCTACTGGGCCGAAAAGGTCATTGATGCCGATAA",
    "Class Assignment": "lower level"
  },
  {
    "Sequence Text": "TCTGCTAGGTCAACGATGATCAGCTAATCTGCTA",
    "Class Assignment": "middle level"
  }
]

Please indicate the class for AGCACGAGGGCAATGAGTTGATAGCACGGGTGGC based on its PBM binding z-score. upper level

Please indicate the class for GATACAGGGTCAAAGCCAGAGTACGCGTATTGAT based on its PBM binding z-score. upper level

Please indicate the class for CGTCCAAGGTCAATGCTAGGTCAGTGAGAGCATT based on its PBM binding z-score. upper level

Please indicate the class for CCTTACGGGTCACGAGGTTATGGCACGACGAGCG based on its PBM binding z-score. middle level

* * *

Provide the recorded PBM binding z-score for the entries that follow.
- Tested on: PPARg:RXRa IVT, anti-PPARg (NR concentration 270 nM, RXRa partner concentration 90 nM)
- Protocol Description: PBM binding z-score (relative to random genomic background probes); higher = stronger binding; sequences stand for … in GC…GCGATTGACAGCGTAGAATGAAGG
Numbers only.

Batch request: PBM binding z-score per item, same order as input.
1. ACTAGTTGGTGAGCTGAGGTCACACACAATTCGG
2. GCAGACAGGTGAAACGCAGGCAACTCAGGGTGGC
3. TCTTGTAGATCAAGCAGGTTAAGAACGCCTGAGT
4. ACTAGTTGGTCAGCTGAGATCACACACAATTCGG
5. CGAACTAGGTCATCCAGGACAATGAATACATTGA
6. ATCTCTAGGTAAGAAGTTCAGTGAAAGAGAGGAC
7. ATCTCTAGGTAAGGTTCAGTGAAAGATCGATAGA

1. 1.97
2. 0.278
3. 0.613
4. 0.741
5. 8.42
6. 1.29
7. 1.27

Batch request: PBM binding z-score per item, same order as input.
1. TCTAGTCGGTCACGGAGGTCACACACGACGGGTA
2. CCAACTAGGTCAGAACAGGACAGTGAAGGATGAT
3. CCAGACAGGTGAGAAGGTAAGTCAGCCTCGATTA
4. GCGACTGGGGCATCAGCAGGTTACCATTACTTAA
5. CCTACTGGGCCACGAAAAGTCATTGATTCAGTGA
6. ATCTCTAGGTAAGAATCAGTTCAGTGAAGAACGC
7. TCGAGTAGGTTAGGGGCATACAGAATGGCGTCGA
8. GCTCGGAGGACAAGGTCAGAGATTTGTCCGTAGA

[5.71, 6.66, 0.37, 3.38, 5.51, 0.899, 1.38, 0.673]

Batch request: PBM binding z-score per item, same order as input.
1. CTGAGTAGGTTATGGGGCATTCAGGCAACGGTGA
2. TCTTGTAGATTAACAGGAGGTTAAGAAAGATCGA
3. CGTCCAAGGTCAAAGGTCAGAGAAGAGATGACGG
4. GGAACAAGGGCAAGTTGATAGCAGAGTTTGATGG
5. CAAACTAGGTCAGAACAGGACAGTGAAGGATGAT
6. GCTACTAGTTGAAAGGGCAACCGAATGATTCTCG
7. CGTCCAAGGTCAGCCGGTCAGTGAAAGCGACGTG
8. CGAACTAGGTCAACCAGGACAGTGAATACATTGA

4.47
0.0101
6.13
1.97
7.34
1.33
2.75
8.35

Batch request: PBM binding z-score per item, same order as input.
1. TAGCTTAGGTCATGCGGGCCAGTATAGTGTCGGC
2. CCTAGCAGGCCAATTTGGGTCACTCAAGGCTTGA
3. ATCTCTAGGTAACAAGTTTAGTGAAAGAGAGGAC
4. CCTAGCAGGCCAATCTGGGTCACTTAAGGCTTGA
5. CGTCCAAGTTCAGCAGGTCAGTGAAAGCGACGTG
6. AGAACGAGGGCACGCTGAGCTGATAGCAGAGTAG
7. ATATGAAGGTTACATCCGGGTCATTCAGGCTATG
8. CCTAGTTGGTCAGGAGGTTACACACCGGATATGA

1. 1.65
2. 2.91
3. 2.92
4. 5.04
5. 0.339
6. 3.89
7. 3.33
8. 1.65
